Ref: PubChem BioAssay (NCI)

// values below are reported growth inhibition
Assay: NCI Yeast Anticancer Drug Screen. Data for the mec2-1 strain (AID 157)
Conditions: S. cerevisiae mec2-1 strain, at 5.0 µM (retest, dose inferred, filed as 0.5), stronger effect = higher value
Procedure: Growth inhibition of yeast strains with defined genetic alterations is measured as a screen for potential anti-cancer activity. Selected strains with alterations in DNA damage repair or cell cycle control were exposed to compounds and growth inhibition was measured relative to vehicle treated controls. The strain used in this assay is mec2-1
About 79,000 compounds went through this panel and 15% of them were active in at least one assay; those are over-represented in the sample as a whole.
# unit: % | format: bare number

## Task Recorded growth inhibition of O=S(=O)(c1ccc(OCC(O)COc2ccc(S(=O)(=O)c3ccc(OCC4CO4)cc3)cc2)cc1)c1ccc(OCC2CO2)cc1 (stereo unspecified) , please.
## Result 4

## Task Next up: `CC1=NC2=NC(CCCC(=O)OCc3ccc(Cl)c(Cl)c3)=NC3=CC=CC(=N1)N32`
## Result 17

## Task Try `c1ccc(-c2cnc3nc4ccccc4nc3n2)cc1` next.
## Result 4

Further cases:
## Task Give its growth inhibition value. Item: `O=C1C(c2c[nH]c3ccc(Br)cc23)=Nc2ccc(Br)cc21`
## Result 3

## Task Next compound: Nc1ccccc1OCC(O)CN1CCN(Cc2ccccc2)CC1 (stereo unspecified)
## Result -4

## Task What about CN(C)CC1CC/C(=C\c2ccc(O)cc2)C1=O (stereo unspecified) ?
## Result -19

## Task Next: `O=C1Nc2ccccc2/C1=C/c1ccc(Cl)c(Cl)c1`
## Result -8
